Cited source for all entries: patent US20230348467A1

target_of_assay: recombinant human full-length SHP2 (Homo sapiens (Human), UniProt Q06124)
Sequence (Q06124 whole entry): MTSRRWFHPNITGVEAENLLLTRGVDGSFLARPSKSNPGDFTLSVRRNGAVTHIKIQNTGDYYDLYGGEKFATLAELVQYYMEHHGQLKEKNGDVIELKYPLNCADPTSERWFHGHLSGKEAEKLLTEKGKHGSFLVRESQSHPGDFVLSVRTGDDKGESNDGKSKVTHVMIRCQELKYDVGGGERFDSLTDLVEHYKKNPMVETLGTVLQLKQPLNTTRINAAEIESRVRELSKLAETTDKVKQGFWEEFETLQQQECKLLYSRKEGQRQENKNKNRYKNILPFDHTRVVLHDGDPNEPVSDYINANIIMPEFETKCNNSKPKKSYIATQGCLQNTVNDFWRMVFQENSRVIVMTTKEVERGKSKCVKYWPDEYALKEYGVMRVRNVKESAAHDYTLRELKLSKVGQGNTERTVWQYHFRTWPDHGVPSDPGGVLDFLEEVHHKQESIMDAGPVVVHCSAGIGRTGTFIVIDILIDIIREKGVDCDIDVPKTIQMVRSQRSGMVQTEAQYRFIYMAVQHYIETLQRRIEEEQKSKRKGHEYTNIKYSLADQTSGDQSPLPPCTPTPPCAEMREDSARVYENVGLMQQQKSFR
assay_protocol: Allosteric inhibition of full-length SHP2 enzyme (DiFMUP fluorescence)
Format: biochemical
condition_label: full-length SHP2 0.5 nM, activating peptide 0.5 uM, DiFMUP substrate
Quick reference for IC50 among some molecules
Output spec: scalar in nM, unitless text.

{"columns": ["compound_structure_string", "target_of_assay", "IC50, nM"],
 "data": [
  ["Cc1cccc(-c2n[nH]c3nc(N4CCC(N)(c5ccccc5)CC4)nc(C(N)=O)c23)c1Cl", "recombinant human full-length SHP2 (Homo sapiens (Human), UniProt Q06124)", 3],
  ["NC(=O)c1nc(N2CCC(N)(c3ccccc3)CC2)nc2[nH]cc(-c3cccc(Cl)c3Cl)c12", "recombinant human full-length SHP2 (Homo sapiens (Human), UniProt Q06124)", 11],
  ["NC(=O)c1nc(N2[C@@H]3CC[C@H]2C[C@H](N)C3)nc2[nH]nc(-c3cccc(Cl)c3Cl)c12", "recombinant human full-length SHP2 (Homo sapiens (Human), UniProt Q06124)", 5]
]}

Task: Endpoint output: IC50 of CC1(N)CCN(c2nc(C(N)=O)c3c(-c4cccc(Br)c4Cl)n[nH]c3n2)CC1 . Value?
Result: 8

Task: Please do the same for NC(=O)c1nc(N2CCC(N)(c3ccccc3)CC2)nc2[nH]nc(-c3cccc(Cl)c3Cl)c12 as well.
Result: 4

* * *

assay_protocol: Pharmacokinetic test in ICR mice, intragastric (Test Example 4)
Type: in vivo
condition_label: mouse, PO, 10 mg/kg per table (method text says 1 mg/kg), plasma, read-out: Area under curve AUC0-∞
reported_property: AUC(0-inf) (ng·h/mL)
Output spec: scalar in ng·h/mL, unitless text.

{"columns": ["compound_structure_string", "measurement_units", "AUC(0-inf)"],
 "data": [
  ["NC(=O)c1nc(N2CCC(N)(c3ccccc3)CC2)nc2[nH]nc(-c3cccc(Cl)c3Cl)c12", "ng·h/mL", 18500]
]}

Here is the next item to consider.
Task: Endpoint output: AUC(0-inf) of NC(=O)c1nc(N2CCC3(CC2)Cc2ccccc2[C@H]3N)nc2[nH]nc(-c3cccc(Cl)c3Cl)c12 . Value?
Result: 31300

* * *

assay_protocol: Pharmacokinetic test of mice, intragastric (Test Example 5)
Assay type: in vivo
condition_label: mouse; ICR mice, PO, 5 mg/kg, plasma; read-out: Area under curve AUC0-∞
reported_property: AUC(0-inf)
Answer by giving the amount and then stating its unit.

Task: Endpoint output: AUC(0-inf) of NC(=O)c1nc(N2CCC(N)(c3ccccc3)CC2)nc2[nH]nc(-c3ccnc(Cl)c3Cl)c12 . Value?
Result: 2720 ng·h/mL

* * *

target_of_assay: recombinant human full-length SHP2 (Homo sapiens (Human), UniProt Q06124)
assay_protocol: Allosteric inhibition of full-length SHP2 enzyme (DiFMUP fluorescence)
condition_label: full-length SHP2 0.5 nM, activating peptide 0.5 uM, DiFMUP substrate
reported_property: IC50
Answer by giving the amount and then stating its unit.

{"columns": ["molecule", "target_of_assay", "IC50"],
 "data": [
  ["NC1(c2cccc(Cl)c2)CCN(c2nc(C(=O)O)c3c(-c4cccc(Cl)c4Cl)n[nH]c3n2)CC1 [Example 25]", "recombinant human full-length SHP2 (Homo sapiens (Human), UniProt Q06124)", "5 nM"],
  ["NC(=O)c1nc(N2CCC(N)(CO)CC2)nc2[nH]nc(-c3cccc(Cl)c3Cl)c12 [Example 13]", "recombinant human full-length SHP2 (Homo sapiens (Human), UniProt Q06124)", "10 nM"],
  ["NC1(c2ccccc2)CCN(c2nc(-c3nnn[nH]3)c3c(-c4cccc(Cl)c4Cl)n[nH]c3n2)CC1 [Example 30]", "recombinant human full-length SHP2 (Homo sapiens (Human), UniProt Q06124)", "3 nM"],
  ["NC(=O)c1nc(N2CCC3(CC2)Cc2ccccc2[C@H]3N)nc2[nH]nc(-c3cccc(Cl)c3Cl)c12 [Example 5]", "recombinant human full-length SHP2 (Homo sapiens (Human), UniProt Q06124)", "1 nM"],
  ["NC(=O)c1nc(N2CCC(N)(c3ccccn3)CC2)nc2[nH]nc(-c3cccc(Cl)c3Cl)c12 [Example 38]", "recombinant human full-length SHP2 (Homo sapiens (Human), UniProt Q06124)", "27 nM"],
  ["NC(=O)c1nc(N2[C@@H]3CC[C@H]2C[C@@H](N)C3)nc2[nH]nc(-c3cccc(Cl)c3Cl)c12 [Example 7]", "recombinant human full-length SHP2 (Homo sapiens (Human), UniProt Q06124)", "14 nM"]
]}

Task: Endpoint output: IC50 of NC(=O)c1nc(N2CCC(N)CC2)nc2[nH]nc(-c3cccc(Cl)c3Cl)c12 [Example 15] . Value?
Result: 24 nM

Task: Please do the same for NC1(c2ccc(Cl)cc2)CCN(c2nc(C(=O)O)c3c(-c4cccc(Cl)c4Cl)n[nH]c3n2)CC1 [Example 24] as well.
Result: 5 nM

Task: Please do the same for COc1ccc(C2(N)CCN(c3nc(C(N)=O)c4c(-c5cccc(Cl)c5Cl)n[nH]c4n3)CC2)cc1 [Example 46] as well.
Result: 3 nM

Task: Please do the same for NC(=O)c1nc(N2CCC(N)(c3ccccc3)CC2)nc2[nH]nc(-c3ccnc(Cl)c3Cl)c12 [Example 27] as well.
Result: 7 nM

Task: Please do the same for NC(=O)c1nc(N2CCC(N)(c3c(F)cccc3F)CC2)nc2[nH]nc(-c3cccc(Cl)c3Cl)c12 [Example 11] as well.
Result: 17 nM

Task: Please do the same for N[C@@H]1c2ccccc2CC12CCN(c1nc(C(=O)O)c3c(-c4cccc(Cl)c4Cl)n[nH]c3n1)CC2 [Example 9] as well.
Result: 1 nM
